Molecular target: Acetylcholinesterase (Homo sapiens)
Sequence (P22303 whole entry): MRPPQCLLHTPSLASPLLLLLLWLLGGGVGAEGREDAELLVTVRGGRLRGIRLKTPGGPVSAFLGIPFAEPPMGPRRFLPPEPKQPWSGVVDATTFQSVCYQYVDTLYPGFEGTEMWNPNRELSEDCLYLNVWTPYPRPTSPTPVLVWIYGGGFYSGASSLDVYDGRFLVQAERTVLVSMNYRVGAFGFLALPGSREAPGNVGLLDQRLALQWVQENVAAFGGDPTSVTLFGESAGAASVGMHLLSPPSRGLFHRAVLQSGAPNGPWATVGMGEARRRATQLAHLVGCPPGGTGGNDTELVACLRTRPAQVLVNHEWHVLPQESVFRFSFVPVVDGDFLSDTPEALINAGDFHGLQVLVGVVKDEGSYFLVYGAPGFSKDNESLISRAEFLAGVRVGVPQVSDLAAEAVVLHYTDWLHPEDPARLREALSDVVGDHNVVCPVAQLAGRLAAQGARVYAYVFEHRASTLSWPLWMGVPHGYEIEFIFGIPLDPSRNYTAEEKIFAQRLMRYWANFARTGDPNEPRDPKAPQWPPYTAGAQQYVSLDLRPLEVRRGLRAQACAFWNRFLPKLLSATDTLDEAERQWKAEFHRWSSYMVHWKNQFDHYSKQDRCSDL
Assay: Inhibition of human AChE using acetylthiocholine iodide as substrate by Ellman's method
value-type: pIC50
Scale: pIC50 equals -log10([C]), with [C] in mol/L.

**Q:** Need pIC50 of Cc1cc2c(cc1C)[n+](Cc1ccccc1C)cn2C(c1ccccc1)c1ccccc1 , thanks.
**A:** 5.38

----------
Molecular target: Acetylcholinesterase (Homo sapiens)
Assay: Inhibition of AChE (unknown origin) using acetylthiocholine iodide as substrate preincubated for 15 min followed by substrate addition and measured after 60 min by Ellman's method
value-type: IC50 (µM)
Please respond with the number in µM and leave the unit unwritten.

**Q:** Form field: IC50 recorded for c1ccc(-c2nn(-c3ccccc3)cc2-c2nc(-c3ccccc3)c(-c3ccccc3)n2-c2ccccc2)cc1 with Acetylcholinesterase (Homo sapiens) (enter value)
**A:** 41.2
